Data origin: the OPERA property sets (Mansouri et al. 2018)

Details: 20 °C
Each item that follows carries a reported solubility.
experimental endpoint: solubility

INSERT INTO measurements (molecule, experimental_endpoint, meas_value) VALUES
  ('CCC1(CC)C(=O)NC(=O)N=C1N', 'solubility', '40.1 mM'),
  ('O=c1[nH]c2cncnc2[nH]1', 'solubility', '30.6 mM'),
  ('CC(C)(O)CC(C)(O)c1cccc2ccccc12 (stereo unspecified)', 'solubility', '0.573 mM'),
  ('O=C(O)c1occ(Cl)c1Cl', 'solubility', '14.9 mM'),
  ('COC[C@@H](N)C(=O)O (racemic)', 'solubility', '4490 mM'),
  ('Cc1cc(O)c(C(=O)O)c(O)c1', 'solubility', '8.92 mM'),
  ('CSc1cc(O)cc(O)c1', 'solubility', '16 mM'),
  ('NC(=S)Nc1cccc([N+](=O)[O-])c1', 'solubility', '35.5 mM'),
  ('O=C1COc2ccccc2N1', 'solubility', '2.68 mM'),
  ('O=C(O)c1cccc2ncccc12', 'solubility', '2.1 mM'),
  ('CCCCCS', 'solubility', '1.5 mM'),
  ('CC(C)COC(=O)c1ccc(N)cc1', 'solubility', '1.14 mM'),
  ('CCCc1ncnc2c(O)cccc12', 'solubility', '1.2 mM'),
  ('NC(=O)NC(=O)C=CC(=O)O', 'solubility', '12 mM'),
  ('CC=CCC1(C)C(=O)NC(=O)N(C)C1=O (stereo unspecified)', 'solubility', '28.5 mM'),
  ('Cc1nc2c(=O)n(C)c(=O)n(C)c2nc1C', 'solubility', '45.4 mM'),
  ('O=C(O)C1=CCCCC1', 'solubility', '55.5 mM'),
  ('O=C1CCCCCN1C(=O)c1ccccc1', 'solubility', '6.81 mM'),
  ('CC(C)Cc1nnc(NS(=O)(=O)c2ccc(N)cc2)s1', 'solubility', '0.15 mM'),
  ('Nc1ccc(Cl)cc1[N+](=O)[O-]', 'solubility', '2.9 mM'),
  ('CCOCC(N)C(=O)O (stereo unspecified)', 'solubility', '3340 mM'),
  ('CC=C(CCCC)C(=O)NC(N)=O', 'solubility', '1.63 mM'),
  ('CCc1nc2ncnc(O)c2nc1CC', 'solubility', '12.2 mM'),
  ('CCCCCCCCOC(=O)c1cc(O)c(O)c(O)c1', 'solubility', '0.127 mM'),
  ('C=CCCCN=C=S', 'solubility', '1.26 mM'),
  ('CCOC(=O)c1[nH]c(C)cc1C', 'solubility', '2.39 mM'),
  ('Ic1ccc2c(c1)Sc1ccccc1N2', 'solubility', '0.000118 mM'),
  ('NC(=O)N/N=C/[C@H](O)[C@@H](O)[C@H](O)CO', 'solubility', '743 mM'),
  ('CC(=O)Nc1ccc(Br)cc1C', 'solubility', '17.5 mM'),
  ('COc1ccc(CO)cc1', 'solubility', '14.5 mM'),
  ('Cn1c(=O)ncc2nccnc21', 'solubility', '42.5 mM'),
  ('N#Cc1cccc(N)c1', 'solubility', '67.7 mM'),
  ('CC1NC(C)SC(C)S1 (stereo unspecified)', 'solubility', '42.9 mM'),
  ('CC1(C)CO1', 'solubility', '804 mM'),
  ('O=C(O)CCNC(=O)Nc1ccc([N+](=O)[O-])cc1', 'solubility', '1.97 mM'),
  ('CC(=O)Nc1ccc(/C=N/NC(N)=S)cc1', 'solubility', '0.372 mM'),
  ('CCCCCCCS', 'solubility', '0.07 mM'),
  ('CN(C)c1nc2c[nH]cnc-2n1', 'solubility', '40.9 mM'),
  ('CC1CCC2(CCC(C)O2)O1 (stereo unspecified)', 'solubility', '356 mM'),
  ('CC(O)C(C)Cl (stereo unspecified)', 'solubility', '613 mM'),
  ('NC(=O)C(N)C(O)C(=O)O (stereo unspecified)', 'solubility', '70.9 mM'),
  ('CC(=O)Nc1ccc(C)cc1F', 'solubility', '18.2 mM'),
  ('O=C(O)c1ccc(Cl)o1', 'solubility', '19.1 mM'),
  ('Cc1ncnc2nc[nH]c12', 'solubility', '1490 mM'),
  ('Cc1nc(C)c(C(=O)O)cc1C(=O)O', 'solubility', '1.55 mM'),
  ('NC1=NC2=NC=NC2C(C(F)(F)F)=N1 (stereo unspecified)', 'solubility', '0.733 mM'),
  ('CC(C)(C)S(=O)(=O)C(C)(C)C', 'solubility', '60.6 mM'),
  ('CC(C)(O)CCl', 'solubility', '1450 mM'),
  ('CC(C#N)(CCC(=O)O)/N=N/C(C)(C#N)CCC(=O)O (stereo unspecified)', 'solubility', '9.81 mM'),
  ('O=C(O)CNC(=O)CNS(=O)(=O)c1ccc2ccccc2c1', 'solubility', '2.02 mM'),
  ('OCc1cc(Cl)c(Cl)c(Cl)c1', 'solubility', '0.804 mM'),
  ('CCC(CC)(CC)NC(N)=O', 'solubility', '15.2 mM'),
  ('O=CC(=O)Cc1ccccc1', 'solubility', '6.75 mM'),
  ('Oc1cc2ccccc2cc1C1=NCCN1', 'solubility', '0.499 mM'),
  ('CC(C)c1nnc(NS(=O)(=O)c2ccc(N)cc2)s1', 'solubility', '0.385 mM'),
  ('O=C(O)C=C(Br)Br', 'solubility', '146 mM');
